experiment: recombinant UMI read abundance after kanamycin selection (control-corrected) (log10(CPM+1)); higher = more efficient recombination; extreme values may be limits of the assay; sequences stand for … in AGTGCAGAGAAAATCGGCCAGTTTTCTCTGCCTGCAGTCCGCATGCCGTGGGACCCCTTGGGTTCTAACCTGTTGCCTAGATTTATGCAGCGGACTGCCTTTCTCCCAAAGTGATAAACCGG…AGGTTGGTTTCACT; site = the 11-nt donor;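 further: IS621 bridge recombinase in Escherichia coli cells against a fixed T5 target plasmid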
Binary classification by recombinant UMI read abundance (log10), with 1 as an inclusive lower bound for t; all other cases are f.

Please indicate if the recorded recombinant UMI read abundance (log10) for CGGGAACCATGGACCGGTTTTCCCGGTAATCCGTATTTGAC (site CGGGAACCTCT) meets or exceeds 1.
f

Decide: is the reported value of recombinant UMI read abundance (log10) for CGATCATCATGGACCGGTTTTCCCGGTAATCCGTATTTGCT (site CGATCGTCTAT) equal to or greater than 1?
f

Check the entry GGAGGACCATGGACCGGTTTTCCCGGTAATCCGTATTTGGG (site GGAGGACCTCC) : does recombinant UMI read abundance (log10) equal or exceed 1?
f

Is it the case that GTAGTCGCATGGACCGGTTTTCCCGGTAATCCGTATTTGTG (site GTAGTCGCTCG) has recombinant UMI read abundance (log10) reaching or exceeding 1?
t

Given CGCAACACATGGACCGGTTTTCCCGGTAATCCGTATTTGCG (site CGCAACACTCG) , state whether its recombinant UMI read abundance (log10) is at least 1.
t

Please indicate if the recorded recombinant UMI read abundance (log10) for GATCCAACATGGACCGGTTTTCCCGGTAATCCGTATTTGTA (site GCTCCAACTTA) meets or exceeds 1.
f

Determine whether this sequence has recombinant UMI read abundance (log10) no lower than 1: GCATAGTCATGGACCGGTTTTCCCGGTAATCCGTATTTGTT (site GCATAGTCTAA)
t

Could you please find out whether CACGTACCATGGACCGGTTTTCCCGGTAATCCGTATTTGAA (site CACGTACCTTT) has recombinant UMI read abundance (log10) that meets 1 or exceeds it?
f

Shift focus to the following entry.
recombinant UMI read abundance (log10) >= 1 for CTAGTGTCATGGACCGGTTTTCCCGGTAATCCGTATTTGGT (site CTAGTGTCTAC) ?
t

###

experiment: recombinant UMI read abundance after kanamycin selection (control-corrected) (log10(CPM+1)); higher = more efficient recombination; extreme values may be limits of the assay; sequences stand for … in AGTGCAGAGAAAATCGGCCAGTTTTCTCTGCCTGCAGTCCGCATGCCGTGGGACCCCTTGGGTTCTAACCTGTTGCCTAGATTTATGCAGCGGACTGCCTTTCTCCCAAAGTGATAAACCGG…AGGTTGGTTTCACT; site = the 11-nt donor
Decide using recombinant UMI read abundance (log10): a value greater than or equal to 0.02 is Condition met, a smaller one is Condition not met.

Decide: is the reported value of recombinant UMI read abundance (log10) for CCGTTTGCATGGACCGGTTTTCCCGGTAATCCGTATTTGTG (site CCGTTGGCTCA) equal to or greater than 0.02?
Condition not met

Kindly determine if recombinant UMI read abundance (log10) recorded for CCGTTCACATGGACCGGTTTTCCCGGTAATCCGTATTTGCT (site CCGTTGACTAG) is above or exactly 0.02.
Condition not met

Kindly determine if recombinant UMI read abundance (log10) recorded for GTTTTTCCATGGACCGGTTTTCCCGGTAATCCGTATTTGGT (site GTTGTTCCTAC) is above or exactly 0.02.
Condition met

Threshold query (recombinant UMI read abundance (log10) >= 0.02) on CGCCGCACATGGACCGGTTTTCCCGGTAATCCGTATTTGCT (site CGCCGTACTAG)
Condition not met

Evaluate CTGAATCCATGGACCGGTTTTCCCGGTAATCCGTATTTGTT (site CTGAATCCTAA) : recombinant UMI read abundance (log10) at minimum 0.02?
Condition met

All values here come from the supplement of paper PMC11208160.
